Source listed as the RNAGym collection of RNA variant scans (doi:10.7554/elife.90254).

Quick reference for self-cleavage among some variants
B1: LINE1-full (parent)
chain: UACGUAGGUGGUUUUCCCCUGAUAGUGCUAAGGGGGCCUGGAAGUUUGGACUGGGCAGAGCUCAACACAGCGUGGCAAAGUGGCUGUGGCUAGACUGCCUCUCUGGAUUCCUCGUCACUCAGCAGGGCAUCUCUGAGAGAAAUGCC

Variants of: B1
measurement_protocol: self-cleavage, relative activity (ratio to wild type); higher = more cleavage; in vitro, sequencing; the parent is a self-cleaving ribozyme

| mutation | self-cleavage |
| --- | --- |
| U9G A42G | 1.4 |
| A30G C38U | 1.2 |
| C18U G139U | 1.11 |
| A124C A138C | 1.86 |
| U29C A136U | 1.54 |
| U39C A124G | 0.53 |
| A2U U73A | 0.45 |
| C98A U112C | 0.05 |
| A24G U47C | 1.05 |
| U26C G93C | 0.17 |
| U100C U104A | 1.37 |
| G11A C95A | 0.06 |
| U46C C66U | 0.02 |
| U13C G54A | 0.62 |
| A59G U85C | 0.09 |
| C3A A69G | 0.31 |
| U119G A141G | 1.57 |
| G40A A129G | 1.42 |
| U62G C113U | 0.1 |
| C113A U130C | 0.44 |
| U91C U109A | 0.48 |
| U20C G33A | 0.99 |
| C28A C116U | 1.34 |
| U81C G86U | 0.13 |
| U62C G139A | 0.03 |
| U81C A117G | 1.21 |
| A65U C76U | 0.22 |
| U26C C98U | 0.11 |
| U9A U47C | 1.37 |
| U85G A107U | 0.27 |
| U13C A59G | 0.13 |
| A31G U85C | 0.33 |
| G21A U52A | 1.76 |
| U46C C56A | 0.28 |
| A67G A124U | 0.49 |
| C71U A124G | 0.28 |
| G88A A124G | 0.06 |
| G21U A94U | 0.39 |
| G49U C71U | 0.71 |
| C51U U73A | 1.48 |
